Values compiled from paper PMC5540273.

Recorded %Inh, one value per entry.
# Test system: ULK3;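 further: KINOMEscan kinase panel screen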
# measurement_setup: concentration: 1 μM, replicates: in singlicate; n = 1
Respond numerically; units are % and should not be typed.

1. Cc1ccc(C)c(NC(=O)Nc2ccc(C)c(-c3ccc(C(=O)Nc4ccncc4)cc3)c2)c1 [GSK1398473]	15

Which %Inh value is on record for O=C(Nc1n[nH]c2nc(-c3ccccc3)ccc12)C1CC1 [SB-708999] ? 9

Same question for NCCC(NC(=O)c1cc(Br)c(-c2ccnc3[nH]ccc23)s1)c1ccccc1.O=C(O)C(F)(F)F.O=C(O)C(F)(F)F (centres unmarked) [GSK1307810] please. 16

Now consider O=C(Nc1n[nH]c2nc(-c3ccccc3O)ccc12)C1CC1 [SB-711880] . 16

// next record `CN(c1ccc(F)c(NC(=O)c2cccc(OC(C)(C)C#N)c2Cl)c1)c1ccc2nc(NC(=O)C3CC3)sc2n1` 4

Try the molecule CC(C)c1nc(-c2cccc(NS(=O)(=O)c3c(F)cccc3F)c2)c(-c2ccnc(Nc3ccc(N4CCOCC4)nc3)n2)s1.Cl [GSK1723980] 93.5

Same thing, different molecule: Fc1cc(Cl)ccc1Nc1ccnc2cc(-c3ccc(CN4CCOCC4)o3)ccc12 [GW560109] 34

Now consider Cn1cc(-c2cnc(N)c3c(-c4ccc5c(c4)CCN5C(=O)Cc4ccccc4)csc23)cn1 [GSK2593074] . 0
